This collection of values is drawn from the nanobody polyreactivity screen of Harvey et al. (2022).

TEST_PROTOCOL: yeast display, Sf9 membrane polyspecificity reagent, FACS + sequencing; frameworks hold sequencing errors
REPORTED_METRIC: polyreactivity (PSR sort gate)

Some entries whose results are on file:
{"RESIDUES": "QVQLVESGGGLVQAGGSLRLSCAASGSIFEANDMGWYRQAPGKERELVAAIDANTGSTYYADSVKGRFTISRDNAKNTVYLQMNSLKPEDTAVYYCNAQVYLHTAYDYWGQGTQVTVSS", "polyreactivity (PSR sort gate)": "low polyreactivity"}
{"RESIDUES": "QVQLVESGGGLVQAGGSLRLSCAASGFTFDYYAMGWYRQAPGKERELVAAISVSGGITYYADSVKGRFTISRDNAKNTVYLQMNSLKPEDTAVYYCNAVFYYPYPADRRDYWGQGTQVTVSS", "polyreactivity (PSR sort gate)": "high polyreactivity"}
{"RESIDUES": "QVQHVESGGGLVQAGGSLRLSCAASGLIFSWTAMGWYRQAPGKERELVASISYSGGRTYYADSVKGRFTISRDNAKNTVYLQMNSLKPEDTAVYYCAADTNATTDPEMDYWGQGTQVTVSS", "polyreactivity (PSR sort gate)": "low polyreactivity"}
{"RESIDUES": "QVQIVESGGGLVQAGGSLRLSCAASGSIFITYAMGWYRPAPGKERELVAAIRDSGDRTYYADSVKGRFTISRDNAKNTVYLQMNSLKPEDTAVYYCNARWQEPLKYDYWGQGTQVTVSS", "polyreactivity (PSR sort gate)": "low polyreactivity"}
{"RESIDUES": "QVQLVESGGVLVQAGGSLRLSCAASGSTFSTNAMGWYRQAPGKEREFVAAITWSGDSTDYADSVKGRFTISRDNAKNTVYLQMNSLKPEDTAVYYCAADFPGFYYVYPGDYWGQGTQVTVSS", "polyreactivity (PSR sort gate)": "low polyreactivity"}
{"RESIDUES": "QVQLVDSGGGLVQAGGSLRLICAASGRTFGTNALGWYRQAPGKEREFVAAIRWSDGSTYYADSVKGRFTISRDNAKNTVYLQMNSLKPEDTAVYYCAKEYYIVDVIHDYALYLYDYWGQGTQVTVSS", "polyreactivity (PSR sort gate)": "low polyreactivity"}
{"RESIDUES": "QVQLVESGGGLVQAGGSLRLSCAASGSIFRYNAMGWYRQAPGKERELVAAISSGGSTKYADSVKGRFTISRDNAKKTVYLQMNSLKPEDTAVYYCVARRARYDYWGQGTQVTVSS", "polyreactivity (PSR sort gate)": "high polyreactivity"}
{"RESIDUES": "QVQLVESGGGLVQAGGSLRVSCAASGFTFRGYAMGWYRQAPGKERELVAAIRRGVITNYADSVKGRFTISRDNAKNTVYLQMNSLKPEDTAVYYCAAGNITPYRYYHGYYQSIYDYWGQGTQVTVSS", "polyreactivity (PSR sort gate)": "low polyreactivity"}

Reported polyreactivity (PSR sort gate) for QVQLVESGGGLVQAGGSLSLSCAASGSTFVVNAMGWYRQAPGKERELVAAITQSGGSTFYADSVKGRFPISRDNAKNTVYLQMNSLKPEDTAVYYWGQGTQVTVSS was low polyreactivity

Field polyreactivity (PSR sort gate) (entry QVQLVESGGGLVQAGGSLRLSCAASGRIFGVYAMGWYRQAAWKERELVAAITRGASTYYADSVKGRFTISRDNAKNTVYLQMNSLKPEDPAVYYCAVSQYRGIYRKYDYWGQGTQVTVSS ) reads high polyreactivity

Lookup result for QVQLVESGGGLVQAGGSLRLSCAASGRIFAYNALGWYRQAPGKERELVAAISWSGSSTYYADSVKGRFTISRDNAQNRVYLQMNSLTPEDTAVYYCAATPWYYYSTSYAYYDWGQGTQVTVSA ; measured polyreactivity (PSR sort gate): high polyreactivity

Entry QVQIVESGGGLVQAGGSLRLSCAASGFTFALYAMGWYRQEPGKEREWVAANTRSGRTKYADSVKGRFTISRDNAKNTVYLQMNSLKPEDTAVYYCAADFRYYVTTRFNYWGQGTQVTVSS — recorded polyreactivity (PSR sort gate) = high polyreactivity

For QVQLVESGGGLVQAGGSLRLSCAASGRTFRYYAMGWYRQAPGKERELFAAITSTGSTNYADSVKGRFTISRDNAKNTVYLQMNSLKPEDTAVYYCAARVNGKRRRYDYWGQGTQVTVSS the sequence record lists polyreactivity (PSR sort gate) as high polyreactivity
